- study system: T1, recombinant human CTLA4 protein with human IgG1 Fc tag at the C-terminus (Acro biosystems, Cat#CT4-H5255) (human, UniProt P16410 37-162)
- T1 construct: bought protein; also called human CTLA4-Fc; CTLA4-Fc; not shown: human IgG1 Fc tag at the C-terminus
- T1 sequence (looked up): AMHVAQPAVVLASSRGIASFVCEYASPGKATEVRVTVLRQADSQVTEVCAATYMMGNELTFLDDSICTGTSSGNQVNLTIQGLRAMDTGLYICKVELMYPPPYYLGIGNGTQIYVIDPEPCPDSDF
- assay: capture ELISA: antibody captured on coated plate (anti-human IgG Fc for the chimeric antibodies), biotin human CTLA4-Fc, streptavidin-HRP, OD(450-630)
# reported EC50; entries follow
Include the unit right after the number.

mouse anti-CTLA4 monoclonal antibody D1B8 (antibody, V domains shown, mouse mAb purified from hybridoma supernatant) VH: QIQLQQSGPELVKPGASVKISCKASGYTFTDYYINWVKQRPGQGLEWIGWIYPGNNNTRYNEKFKGKATLTIDTSSSTAFMHLSSLTSEDSAVYFCARYYFDYWGQGTTLTVSS VL: DIQMTQSPSSLSASLGERISLTCRASQEITGYLSWLQQKPDGTIKRLIYAASTLDSGVPQRFSGSRSGSDYSLTISSLESEDFADYYCLQYASYPRTFGGGTKLEIK	5.78 nM

Turning now to a further record.
Reported EC50 for chimeric C1D1 anti-CTLA4 antibody (antibody, human IgG4 S228P, kappa, V domains shown, mouse variable domains on human IgG4/kappa, made in 293F cells) VH: EVKLDETGGGLVQPGRPLKLSCVASGFTFSDNWMNWVRQSPEKGLEWVAQIRNKPYNYETYYSDSVKGRFTISRDDSKSSVYLQMNNLRVEDMGIYYCTGGMDYWGQGTSVTVSS VL: DIQMTQSPASLSASVGETVTITCGASEIIYGALNWYQQKQGKSPQLLIYGATNLADGMSSRFSGSGSGRQYSLKISSLHPDDAATYYCQKILSPPPWTFGGGTKLEIKR was 0.505 nM
